Provide the reported GSD of each item.
# Test Name: Next Generation Impactor (NGI) testing of pMDI prototype formulations
# Format: physicochemical
# Condition Description: Formulation 1
Give bare numbers.

INSERT INTO measurements (compound, recorded_value) VALUES
  ('CCCCCc1cc(O)c(C/C=C(\C)CCC=C(C)C)c(O)c1', 3),
  ('CCCCCc1cc(O)c2c(c1)OC(C)(CCC=C(C)C)C=C2 (stereo not shown)', 3),
  ('C[N+]1(C)CCC(OC(=O)C(O)(c2ccccc2)C2CCCC2)C1 (stereo not shown) [Glycopyrronium, glycopyrronium, reference compound]', 2);

# next compound below
What measured GSD goes with C=C(C)[C@@H]1CCC(C)=C[C@H]1c1c(O)cc(CCCCC)cc1O [CBD, cannabidiol, reference compound] ?
3
